Exercise: for every item that follows, state its recorded collagen-1 synthesis inhibition relative to 1,25(OH)2D3 (%).
# SYSTEM_UNDER_TEST: Vitamin D3 receptor (Homo sapiens) (UniProt P11473)
# PROTOCOL_TEXT: Agonist activity at VDR in human LX2 cells assessed as inhibition of TGFbeta1-induced collagen-1 synthesis at 100 nM after 24 hrs by ELISA relative to 1,25(OH)2D3
Quick note: unit goes after the number.

Guide cases for collagen-1 synthesis inhibition relative to 1,25(OH)2D3 (%), answers given:
>>> measured("CCn1cc(C(CC)(CC)c2ccc(OC(=O)[C@H](C)N)c(C)c2)cc1C(=O)NCC(C)(C)O")
"73%"
>>> measured("C=C1/C(=C\\C=C2/CCC[C@]3(C)[C@@H]([C@H](C)/C=C/[C@@H](O)C4CC4)CC[C@@H]23)C[C@@H](O)C[C@@H]1O")
"95%"
>>> measured("CCn1cc(C(CC)(CC)c2ccc(OCC(O)CO)c(C)c2)cc1C(=O)NCC(F)(F)F (centres undefined)")
"133%"

From here, focus on the item given below.
Asked: Returns the measured collagen-1 synthesis inhibition relative to 1,25(OH)2D3 (%) for the input compound. Input: CCn1cc(C(CC)(CC)c2ccc(OCCCCC(=O)O)c(C)c2)cc1C(=O)NCC(C)(C)O
Given back: 90%

====

# SYSTEM_UNDER_TEST: Vitamin D3 receptor (Homo sapiens) (UniProt P11473)
# PROTOCOL_TEXT: Agonist activity at VDR in human LX2 cells assessed as inhibition of TGFbeta1-induced collagen-1 synthesis at 100 nM after 24 hrs by ELISA relative to 1,25(OH)2D3
Short version: collagen-1 synthesis inhibition relative to 1,25(OH)2D3 (%) at least 80% is Satisfied, less is Not satisfied.

>>> label_value("CCn1c(C(=O)NCC2CC2)ccc1C(CC)(CC)c1ccc(OCC(O)CO)c(C)c1 (centres undefined)")
"Not satisfied"
>>> label_value("CCn1cc(C(CC)(CC)c2ccc(OC(=O)CCN)c(C)c2)cc1C(=O)NCC(C)(C)O")
"Not satisfied"

Asked: Confirm if collagen-1 synthesis inhibition relative to 1,25(OH)2D3 (%) reported for the molecule CCn1c(C(=O)NCC(C)(C)O)ccc1C(CC)(CC)c1ccc(OCC(O)CO)c(C)c1 (centres undefined) is 80% or above.
Given back: Satisfied

Asked: What about CCn1cc(C(CC)(CC)c2ccc(OCCCC(=O)O)c(C)c2)cc1C(=O)NCC(C)(C)O ?
Given back: Satisfied

Asked: What about CCCCCNC(=O)c1cc(C(CC)(CC)c2ccc(OCC(O)CO)c(C)c2)cn1CC (centres undefined) ?
Given back: Not satisfied

Asked: What about CCCCCNC(=O)c1ccc(C(CC)(CC)c2ccc(OCC(O)CO)c(C)c2)n1CC (centres undefined) ?
Given back: Not satisfied

Asked: What about CCn1c(C(=O)NCC(F)(F)F)ccc1C(CC)(CC)c1ccc(OCC(O)CO)c(C)c1 (centres undefined) ?
Given back: Satisfied

Asked: What about CCn1cc(C(CC)(CC)c2ccc(OCC(O)CO)c(C)c2)cc1C(=O)NCC(C)(C)C (centres undefined) ?
Given back: Satisfied

====

# PROTOCOL_TEXT: Half life in Sprague-Dawley rat at 20 mg/kg, po by HPLC analysis
# Assay type: ADME, organism-based
# EXPERIMENTAL_SETUP: in vivo
Exercise: for every item that follows, state its recorded half-life.
Numbers only, in h.

>>> measured("CCn1cc(C(CC)(CC)c2ccc(OCC(O)CO)c(C)c2)cc1C(=O)NCC(C)(C)O (configuration not stated)")
6.57

From here, focus on the item given below.
Asked: Returns the measured half-life for the input compound. Input: C=C1/C(=C\C=C2/CCC[C@]3(C)[C@@H]([C@H](C)CCCC(C)(C)O)CC[C@@H]23)C[C@@H](O)C[C@@H]1O [CALCITRIOL]
Given back: 7.55

====

# SYSTEM_UNDER_TEST: Vitamin D3 receptor (Homo sapiens) (UniProt P11473)
# Sequence (whole entry): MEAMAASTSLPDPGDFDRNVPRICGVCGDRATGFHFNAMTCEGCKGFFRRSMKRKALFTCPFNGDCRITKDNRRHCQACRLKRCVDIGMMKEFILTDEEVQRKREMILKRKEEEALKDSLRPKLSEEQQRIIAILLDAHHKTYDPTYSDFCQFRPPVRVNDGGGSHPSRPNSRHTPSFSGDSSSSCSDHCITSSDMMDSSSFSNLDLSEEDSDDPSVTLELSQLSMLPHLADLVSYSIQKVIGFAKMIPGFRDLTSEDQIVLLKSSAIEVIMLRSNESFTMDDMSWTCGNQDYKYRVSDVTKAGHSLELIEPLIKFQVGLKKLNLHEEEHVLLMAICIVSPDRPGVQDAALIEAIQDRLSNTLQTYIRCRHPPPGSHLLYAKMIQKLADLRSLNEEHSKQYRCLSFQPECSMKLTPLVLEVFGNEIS
# PROTOCOL_TEXT: Binding affinity to VDR ligand binding domain (unknown origin) at 100 nM by fluorescence polarization assay relative to 1,25(OH)2D3
Exercise: for every item that follows, state its recorded Activity.
Give bare numbers, in %.

Guide cases for Activity, answers given:
>>> measured("CCn1cc(C(CC)(CC)c2ccc(OC(=O)CCC(=O)O)c(C)c2)cc1C(=O)NCC(C)(C)O")
30
>>> measured("CCCCCNC(=O)c1cc(C(CC)(CC)c2ccc(OCC(O)CO)c(C)c2)cn1CC (stereo not given)")
16
>>> measured("CCn1c(C(=O)NCC(C)(C)C)ccc1C(CC)(CC)c1ccc(OCC(O)CO)c(C)c1 (stereo not given)")
45

// batch mode: one Activity value per listed entry
1. CCn1cc(C(CC)(CC)c2ccc(OCC(O)CO)c(C)c2)cc1C(=O)NCC(C)(C)O (stereo not given)
2. CCn1c(C(=O)NCC(F)(F)F)ccc1C(CC)(CC)c1ccc(OCC(O)CO)c(C)c1 (stereo not given)
3. CCn1cc(C(CC)(CC)c2ccc(OC(=O)[C@H](C)N)c(C)c2)cc1C(=O)NCC(C)(C)O
4. CCn1c(C(=O)NCC(C)(C)O)ccc1C(CC)(CC)c1ccc(OCC(O)CO)c(C)c1 (stereo not given)
5. CCCCCNC(=O)c1ccc(C(CC)(CC)c2ccc(OCC(O)CO)c(C)c2)n1CC (stereo not given)

Given back:
1. 62
2. 37
3. 20
4. 43
5. 21

// batch mode: one Activity value per listed entry
1. C=C1/C(=C\C=C2/CCC[C@]3(C)[C@@H]([C@H](C)/C=C/[C@@H](O)C4CC4)CC[C@@H]23)C[C@@H](O)C[C@@H]1O
2. CCn1cc(C(CC)(CC)c2ccc(OCC(O)CO)c(C)c2)cc1C(=O)NCC(F)(F)F (stereo not given)
3. CCn1cc(C(CC)(CC)c2ccc(OCCCCC(=O)O)c(C)c2)cc1C(=O)NCC(C)(C)O
4. CCn1c(C(=O)NCC2CC2)ccc1C(CC)(CC)c1ccc(OCC(O)CO)c(C)c1 (stereo not given)
5. CCn1cc(C(CC)(CC)c2ccc(OC(=O)CCN)c(C)c2)cc1C(=O)NCC(C)(C)O

Given back:
[93, 39, 30, 27, 22]

// batch mode: one Activity value per listed entry
1. CCn1cc(C(CC)(CC)c2ccc(OCC(O)CO)c(C)c2)cc1C(=O)NCC(C)(C)C (stereo not given)
2. CCn1cc(C(CC)(CC)c2ccc(OCCCC(=O)O)c(C)c2)cc1C(=O)NCC(C)(C)O

Given back:
[31, 32]

Cited source for all entries: ChEMBL document CHEMBL4266020
